- experimental-target: T1, TRAIL (human, UniProt P50591 114-281)
- T1 construct: also called TNF-related apoptosis inducing ligand
- T1 sequence (P50591 114-281 limits assumed): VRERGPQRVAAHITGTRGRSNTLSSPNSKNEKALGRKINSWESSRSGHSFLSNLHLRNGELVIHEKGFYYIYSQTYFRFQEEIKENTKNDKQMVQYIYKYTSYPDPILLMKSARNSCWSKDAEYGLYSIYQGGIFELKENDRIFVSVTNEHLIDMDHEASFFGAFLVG
- assay-info: phage ELISA
recorded-metric: binding result

binder	recorded-metric	measured-value
I016E05 (scFv) scFv: QVQLQQSGAEVKKPGASVKVSCKASGYTFTKYTMHWVRQAPGQGPEWMGWINGGSGDTKYSRKFQGRVTITKDTSASAAYMELSSLGSEDTALYYCARATYDPLTGYSFDGFDIWGKGTMVTVSSGGGGSGGGGSGGGGSQSALTQPASVSGSPGQSITISCTGTSSDVGGYNYVSWYQQHPGKAPKLMIYEGSKRPSGVSNRFSGSKSGNTASLTISGLQAEDEADYYCSSYTTRSTRVFGGGTKLTVLG	binding result	no binding
I026E03 (scFv) scFv: EVQLVQSGGEVKRPGASVKVSCKASGYTFSRYGISWVRQAPGQGLEWMGWISAYNGKTSFAEKFQGRVTLTTDTSTTTVDMELRNLRSDDTAVYYCARTDYDILTGYPMGYFDPWGKGTLVTVSSGGGGSGGGGSGGGGSALSSELTQDPAVSVALGQTVKITCQGDSLRSFYAAWYQQKPGQAPILVISGKNNRPSGIPDRFSGSSSGNTASLTITGAQAEDEADYYCNSRDTSGNHYVFGAGTKLTVLG	binding result	no binding
I069B07 (scFv) scFv: QVQLVQSGAEVKKPGASVKVSCKASGYTFTSYGISWVRQAPGQGLEWMGWISAYNGNTNYAQKLQGRVTMTTDTSTSTAYMELRSLRSEDTAVYYCARMEYDILTGYYGGYFDYWGQGTMVTVSSGGGGSGGGGSGGGGSQSVLTQPASVSGSPGQSITISCTGTSSDVGGYNYVSWYQQHPGKAPKLMIYEGSKRPSGVSNRFSGSKSGNTASLTISGLQAEDEADYYCSSYTTRSTRVFGGGTKLTVLG	binding result	no binding

// data source = patent US20110293610A1
